System: MS2 coat protein
Experimental protocol: apparent KD of MS2 coat protein; designed switch direction (-1 OFF switch, 1 ON switch): 1; higher = weaker reporter binding
Condition details: input ligand: microRNA oligo, concentration not stated
Recorded metric: apparent KD of MS2 coat protein

Some solved entries appear below for comparison.
>  <Seq text>
GAGGAACAGGCCAACAUGAGGAUCACCCAUGUCCUCGCAUUUCAGGAUAUCUGGAAGAAGAAAAAAGAGAAGGGAAGGUGAAGC [AK SSNG3-V2-34.3] (Eterna round: R96, puzzle: Same State NG 3)

>  <apparent KD of MS2 coat protein>
140 nM

$$$$
>  <Seq text>
UGUUUGUUGUGAGGAUAUACAUACACCUUACAUGAGGAUCACCCAUGUUUUAAUUUUGAUAGUUAGUAGAAGGCACAUGAUUAU [JR_SSNG2_Sub044] (Eterna round: R96, puzzle: Same State NG 2)

>  <apparent KD of MS2 coat protein>
28.1 nM

$$$$

What the record says about UGCUUCGUGUAAGGAUAUGCAGCCGUUUCGGCUGCAGAAGGUACUAUAAUACAUGAGGAUCACCCAUGUCUCUCGCUUUGCGGG [salish99_SSng1_r04_304] (Eterna round: R96, puzzle: Same State NG 1) : apparent KD of MS2 coat protein is 43.4 nM

What the record says about UACUUGGUGGUAGGAUAUGUAGGAUAUGGCGAGAGCUAAGCUUGGAAGUCACUUCAGCCAGAAGGACAGAAGGACCAGUAUCUC [pwkr ssNG2 2FMN + F9.11] (Eterna round: R96, puzzle: Same State NG 2) : apparent KD of MS2 coat protein is 11.5 nM
